Measurement target: Left-right determination factor 2 (Homo sapiens) (UniProt O00292)
Sequence (O00292 whole entry, looked up): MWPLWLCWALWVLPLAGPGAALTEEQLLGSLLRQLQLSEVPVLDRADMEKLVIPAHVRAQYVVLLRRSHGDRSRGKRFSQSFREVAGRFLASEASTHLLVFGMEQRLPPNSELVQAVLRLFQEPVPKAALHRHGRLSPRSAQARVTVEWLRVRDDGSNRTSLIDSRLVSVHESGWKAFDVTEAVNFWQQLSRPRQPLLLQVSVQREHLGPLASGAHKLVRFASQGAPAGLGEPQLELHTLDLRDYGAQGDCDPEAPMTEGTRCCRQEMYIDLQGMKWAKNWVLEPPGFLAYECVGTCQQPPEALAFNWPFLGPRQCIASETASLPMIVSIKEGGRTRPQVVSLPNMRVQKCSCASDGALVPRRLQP
Test summary: small molecules binding LEFTY2 protein – biochemical, small-molecule microarray, 635 nm fluorescence scan, primary screen (AID 1110)
Condition summary: higher = more signal
Readout kind: composite z-score
Lab note: record just the number, no unit beside it.

QUERY: Would you mind telling me what composite z-score value was observed for COC(=O)[C@@]1(Cc2ccc(OC)cc2)[C@H]2c3cc(C(=O)N(C)C)n(Cc4cc(F)c(F)c(F)c4)c3C[C@H]2CN1C(=O)c1ccccc1 ?
RESULT: 0.159

QUERY: How about CC(C)C[C@H]1NC(=O)[C@H](C)NC(=O)[C@@]23C(=O)N[C@@H](Cc4ccccc4)C2[C@H](C)[C@@]2(C)O[C@H]2C3/C=C/C/C=C\CNC1=O (stereo partly drawn) ?
RESULT: -0.206

QUERY: How about NC(=O)NCC#Cc1ccc2c(c1)[C@]1(C(=O)N2)[C@H](c2ccc(OCCO)cc2)N2[C@H](c3ccccc3)[C@H](c3ccccc3)OC(=O)[C@H]2[C@@H]1C(=O)N1CCN(c2ncccn2)CC1 ?
RESULT: 0.259

###

I'd be grateful if you could share measured composite z-score for these entries.
Measurement target: Left-right determination factor 2 (Homo sapiens) (UniProt O00292)
Test summary: small molecules binding LEFTY2 protein – biochemical, small-molecule microarray, 635 nm fluorescence scan, primary screen (AID 1110)
Condition summary: higher = more signal
Lab note: record just the number, no unit beside it.

QUERY: Would you mind telling me what composite z-score value was observed for COCC(=C=CC[C@@H](O)c1ccccc1OCCO)C[C@@H](O)COCc1ccccc1 ?
RESULT: -0.522

QUERY: How about CCCc1cc2c(n1Cc1ccc(OC)cc1)C(C)C1CN(C(=O)c3ccccc3)C(C)(C(=O)OC)C21 (stereo unspecified) ?
RESULT: -0.307

QUERY: How about COc1ccc([Si](C)(C)[C@@H]2[C@@H](CC(=O)N(CCO)Cc3ccccc3)O[C@]3(C(=O)N(Cc4ccc(N5CCOC5=O)cc4)c4ccccc43)[C@H]2C)cc1 ?
RESULT: 0.491

QUERY: How about NCCCCCCNC(=O)[C@H]1C[C@H]2C(=O)N3CCC[C@H]3C(=O)N2[C@H]1c1ccc(O)cc1 ?
RESULT: 0.55

QUERY: How about C=CCC(OC(C)=O)[C@@H]1[C@@H](N(Cc2cccc3ccccc23)C(=O)c2ccc(C)cc2)c2cc(OCCCO)ccc2N1C(=O)c1ccc2ccccc2c1 (stereo partly specified) ?
RESULT: 0.346

QUERY: How about CO[C@H]1O[C@H](CO)[C@@H](OC(=O)Nc2cccc(F)c2)[C@H](OC(=O)Nc2ccc3c(c2)OCO3)[C@H]1OC(=O)Nc1ccc2c(c1)OCO2 ?
RESULT: 0.0115

###

Measurement target: Follistatin (Homo sapiens) (UniProt P19883)
Sequence (P19883 whole entry, looked up): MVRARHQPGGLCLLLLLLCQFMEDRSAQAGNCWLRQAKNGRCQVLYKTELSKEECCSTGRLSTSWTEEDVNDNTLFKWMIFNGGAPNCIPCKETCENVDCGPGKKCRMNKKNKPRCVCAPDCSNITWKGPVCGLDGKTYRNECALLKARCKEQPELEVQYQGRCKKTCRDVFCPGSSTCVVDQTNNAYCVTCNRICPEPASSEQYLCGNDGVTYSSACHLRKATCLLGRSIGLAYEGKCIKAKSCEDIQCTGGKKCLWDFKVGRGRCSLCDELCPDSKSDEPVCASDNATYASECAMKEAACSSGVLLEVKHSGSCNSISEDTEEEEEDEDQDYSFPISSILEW
Test summary: FST protein binding to printed compounds – biochemical, small-molecule microarray, 635/667 nm fluorescence, primary screen (AID 1132)
Condition summary: 635 nm fluorescence, higher = more signal
Readout kind: composite z-score
Lab note: record just the number, no unit beside it.

QUERY: Would you mind telling me what composite z-score value was observed for COC(=O)[C@@]1(Cc2ccc(OC)cc2)[C@H]2c3cc(C(=O)N4CCCC4)n(Cc4ccc(C)o4)c3C[C@H]2CN1C(=O)c1ccccc1 ?
RESULT: 1.09

QUERY: How about COCCCNC(=O)[C@]1(CCS(=O)(=O)c2ccccc2)N=C(c2ccc(OCCCO)cc2)O[C@@H]1c1ccccc1 ?
RESULT: 0.892

QUERY: How about Cc1cc(C)c(C(O)C2C=CC3C(=O)N(c4ccccc4)C(=O)C3N2Nc2ccccc2)c(C)c1 (stereo not drawn) ?
RESULT: 0.784

QUERY: How about COCCCNC(=O)[C@]1(Cc2ccccc2CN=[N+]=[N-])N=C(c2ccc(OCCCO)cc2)O[C@@H]1c1ccccc1CN=[N+]=[N-] ?
RESULT: 0.701

QUERY: How about COC(=O)[C@]1(Cc2ccccc2CN=[N+]=[N-])N=C(c2ccc(OCCCO)cc2)O[C@@H]1c1ccccc1CN=[N+]=[N-] ?
RESULT: 1.17

QUERY: How about C=CCNC(=O)[C@H]1[C@@H]2C(=O)O[C@@H](c3ccccc3)[C@@H](c3ccccc3)N2[C@@H](c2ccc(O)cc2)[C@]12C(=O)N(C(=O)OCCOC)c1ccc(C#CC3(O)CCCCCC3)cc12 ?
RESULT: 0.759

QUERY: How about CC(C)(C)OC(=O)CC[C@@]1(C(=O)N2CCCCC2)N=C(c2ccc(OCCCO)cc2)O[C@@H]1c1ccccc1CN=[N+]=[N-] ?
RESULT: 1.04

QUERY: How about CC(C)NC(=O)[C@@H]1c2ccccc2C(=O)N(Cc2cc(C(F)(F)F)cc(C(F)(F)F)c2)[C@H]1c1ccc(CO)cc1 ?
RESULT: 1

QUERY: How about CC(C)c1ccc(NN2C(C(O)c3cccs3)C=CC3C(=O)N(c4ccccc4)C(=O)C32)cc1 (stereo not drawn) ?
RESULT: 0.963

QUERY: How about COc1ccc(C#Cc2ccc3c(c2)[C@]2(C(=O)N3)[C@H](C(=O)O)[C@H]3C(=O)O[C@H](c4ccccc4)[C@H](c4ccccc4)N3[C@@H]2c2ccc(OCCO)cc2)cc1 ?
RESULT: 0.714

QUERY: How about O=C1c2ccccc2[C@](Cc2ccccc2I)(C(=O)NCC(F)(F)F)[C@H](c2ccc(CO)cc2)N1Cc1ccccc1 ?
RESULT: 1.14

QUERY: How about CN1C(=O)C2C=CC(C(O)c3ccc(F)cc3)N(N3CCCCC3)C2C1=O (stereo not drawn) ?
RESULT: 0.0756

QUERY: How about COCCOC(=O)N1C(=O)[C@@]2(c3cc(C#Cc4ccc(OC)cc4)ccc31)[C@H](C(=O)N1CCc3cc(OC)c(OC)cc3C1)[C@H]1C(=O)O[C@H](c3ccccc3)[C@H](c3ccccc3)N1[C@@H]2c1ccc(O)cc1 ?
RESULT: 1.25

QUERY: How about CCCN1C(=O)[C@@]2(Cc3ccccc3)N=C(c3ccc(OCCCO)cc3)O[C@H]2c2ccccc21 ?
RESULT: 1.42

QUERY: How about CC(C)C[C@@H]1NC(=O)[C@@]23C(=O)N[C@@H](Cc4ccccc4)C2[C@H](C)[C@@]2(C)O[C@H]2C3/C=C/C/C=C\CNC(=O)[C@@H]2CCCN2C1=O (stereo partly drawn) ?
RESULT: 0.368

QUERY: How about C/C=C/[C@@H](CCn1cc([C@H](O)c2ccccc2)nn1)[Si](C)(C)c1ccc(OC)cc1 ?
RESULT: -0.673

QUERY: How about [N-]=[N+]=Nc1ccccc1C[C@]1(C(=O)NCCN2CCOCC2)N=C(c2ccc(OCCCO)cc2)O[C@H]1c1ccccc1N=[N+]=[N-] ?
RESULT: 1.39

QUERY: How about COc1cccc(C)c1NC(=O)O[C@H]1[C@H](OC(=O)Nc2ccccc2)[C@H](OC(=O)Nc2ccccc2)[C@@H](OC)O[C@@H]1CO ?
RESULT: 0.615

###

Test summary: resazurin metabolic signal in HepG2 cells – cell-based, resazurin fluorescence, 24 h, PK04 Diversity Set, profiling panel (AID 1172); also: test concentration not given here
Condition summary: HepG2 viability, higher = more signal
The label is 1 (yes) for z-score below -0.2 and 0 (no) for z-score equal to or exceeding -0.2.

QUERY: Problem: For the compound COc1ccc([Si](C)(C)[C@H]2[C@H](CCO)O[C@@]3(C(=O)N(Cc4cccc(N5CCOC5=O)c4)c4ccccc43)[C@@H]2C)cc1 , is z-score under -0.2?
RESULT: 1 (yes)

QUERY: How about COc1ccc(C#Cc2ccc3c(c2)[C@]2(C(=O)N3)[C@H](C(=O)O)[C@H]3C(=O)O[C@H](c4ccccc4)[C@H](c4ccccc4)N3[C@@H]2c2ccc(OCCO)cc2)cc1 ?
RESULT: 0 (no)

QUERY: How about Cc1cc(C)c(C(O)C2C=CC3C(=O)N(c4ccccc4)C(=O)C3N2Nc2ccc([N+](=O)[O-])cc2)c(C)c1 (stereo not drawn) ?
RESULT: 1 (yes)

QUERY: How about C[C@@H]1ON(c2ccccc2)[C@H](c2ccccc2)[C@H]1C(=O)N1C(=O)OC[C@H]1Cc1ccccc1 ?
RESULT: 0 (no)

QUERY: How about COCCCNC(=O)[C@@]1(Cc2ccccc2CN=[N+]=[N-])N=C(c2ccc(OCCCO)cc2)O[C@H]1c1ccccc1N=[N+]=[N-] ?
RESULT: 1 (yes)

QUERY: How about O=C1O[C@H](c2ccccc2)[C@H](c2ccccc2)N2[C@H]1[C@@H](C(=O)NC[C@H](O)c1ccccc1)[C@]1(C(=O)Nc3ccccc31)[C@H]2c1ccccc1OCCO ?
RESULT: 1 (yes)

QUERY: How about COCC(=C=CC[C@@H](O)c1ccccc1OCCO)C[C@@H](O)COCc1ccccc1 ?
RESULT: 0 (no)

QUERY: How about OCc1ccc(-c2cc[n+](Cc3cccc(OC(F)(F)F)c3)cc2)cc1 ?
RESULT: 0 (no)

QUERY: How about CO[C@H]1O[C@H](CO)[C@@H](OC(=O)c2ccc(Br)cc2)[C@@H]2OC(=O)[C@H](Cc3cccc(Br)c3)C/C=C/C[C@@H](Cc3cccc(Br)c3)C(=O)O[C@@H]12 ?
RESULT: 1 (yes)

QUERY: How about CC(C)C[C@@H]1NC(=O)[C@@H]2C[C@H](C(=O)NCCCC[N+](C)(C)C)[C@H](c3cccc(OCCO)c3)N2C1=O ?
RESULT: 1 (yes)

QUERY: How about O=C(O)[C@@]1(Cc2ccccc2)COC(c2ccc(OCCCO)cc2)=N1 ?
RESULT: 0 (no)

QUERY: How about CC1(C)[C@@H]2CC(C(O)C3C=CC4C(=O)N(c5ccccc5)C(=O)C4N3Nc3ccccc3F)=C[C@@H]1C2 (stereo partly drawn) ?
RESULT: 0 (no)

QUERY: How about C=CCC(OC(C)=O)[C@@H]1[C@@H](N(Cc2ccc(-c3cccc(C(F)(F)F)c3)o2)C(=O)c2cccc3ccccc23)c2cc(OCCCO)ccc2N1C(=O)c1ccc(-c2ccccc2)cc1 (stereo partly drawn) ?
RESULT: 1 (yes)

QUERY: How about O=C1NC(=O)C2C1C=CC(C(O)c1ccc3c(c1)OCO3)N2Nc1ccc(Cl)cc1Cl (stereo not drawn) ?
RESULT: 1 (yes)

QUERY: How about COc1cccc(C)c1NC(=O)O[C@H]1[C@H](OC(=O)Nc2ccccc2)[C@H](OC(=O)Nc2ccccc2)[C@@H](OC)O[C@@H]1CO ?
RESULT: 1 (yes)

QUERY: How about COC(=O)[C@@]1(Cc2ccccc2N=[N+]=[N-])N=C(c2ccc(OCCCO)cc2)O[C@H]1c1ccccc1 ?
RESULT: 1 (yes)

QUERY: How about COc1ccc(CCNC(=O)[C@@H]2c3ccccc3C(=O)N(Cc3ccccc3C(F)(F)F)[C@H]2c2ccc(CO)cc2)cc1 ?
RESULT: 0 (no)

QUERY: How about CCCCC(=C=CC[C@H](O)c1ccccc1OCCO)C[C@H](O)c1ccccn1 ?
RESULT: 0 (no)

QUERY: How about COC(=O)[C@@]1(Cc2ccc(F)cc2)[C@H]2c3cc(C(=O)N4CCCC4)n(Cc4ccccc4)c3C[C@H]2CN1C(=O)c1ccccc1 ?
RESULT: 0 (no)

QUERY: How about CN1C(=O)C2C=CC(C(O)c3cccc4ccccc34)N(NC(=O)OC(C)(C)C)C2C1=O (stereo not drawn) ?
RESULT: 1 (yes)

QUERY: How about O=C1NC(=O)C2C1C=CC(C(O)CCc1ccccc1)N2Nc1ccccn1 (stereo not drawn) ?
RESULT: 1 (yes)

QUERY: How about C=C(CCCC)/C(=C/C[C@@H](OC(=O)c1ccncc1)c1ccccc1OCCO)c1cc(C(=O)OC)ccc1OC ?
RESULT: 0 (no)

QUERY: How about COCCCNC(=O)[C@@H]1c2ccccc2C(=O)N(c2ccc(C)cn2)[C@H]1c1ccc(CO)cc1 ?
RESULT: 1 (yes)
